All values here come from patent US20180099931A1.

Biological target: F508delCFTR (Homo sapiens, UniProt P13569, DEL508-508)
Construct: expressed in transfected cells; host or cells: CFBE41o- human lung-derived epithelial cells (CFBE4lo-F508delCFTR-HRP), doxycycline-inducible
Sequence (P13569 with tags, fused parts or gaps DEL508-508): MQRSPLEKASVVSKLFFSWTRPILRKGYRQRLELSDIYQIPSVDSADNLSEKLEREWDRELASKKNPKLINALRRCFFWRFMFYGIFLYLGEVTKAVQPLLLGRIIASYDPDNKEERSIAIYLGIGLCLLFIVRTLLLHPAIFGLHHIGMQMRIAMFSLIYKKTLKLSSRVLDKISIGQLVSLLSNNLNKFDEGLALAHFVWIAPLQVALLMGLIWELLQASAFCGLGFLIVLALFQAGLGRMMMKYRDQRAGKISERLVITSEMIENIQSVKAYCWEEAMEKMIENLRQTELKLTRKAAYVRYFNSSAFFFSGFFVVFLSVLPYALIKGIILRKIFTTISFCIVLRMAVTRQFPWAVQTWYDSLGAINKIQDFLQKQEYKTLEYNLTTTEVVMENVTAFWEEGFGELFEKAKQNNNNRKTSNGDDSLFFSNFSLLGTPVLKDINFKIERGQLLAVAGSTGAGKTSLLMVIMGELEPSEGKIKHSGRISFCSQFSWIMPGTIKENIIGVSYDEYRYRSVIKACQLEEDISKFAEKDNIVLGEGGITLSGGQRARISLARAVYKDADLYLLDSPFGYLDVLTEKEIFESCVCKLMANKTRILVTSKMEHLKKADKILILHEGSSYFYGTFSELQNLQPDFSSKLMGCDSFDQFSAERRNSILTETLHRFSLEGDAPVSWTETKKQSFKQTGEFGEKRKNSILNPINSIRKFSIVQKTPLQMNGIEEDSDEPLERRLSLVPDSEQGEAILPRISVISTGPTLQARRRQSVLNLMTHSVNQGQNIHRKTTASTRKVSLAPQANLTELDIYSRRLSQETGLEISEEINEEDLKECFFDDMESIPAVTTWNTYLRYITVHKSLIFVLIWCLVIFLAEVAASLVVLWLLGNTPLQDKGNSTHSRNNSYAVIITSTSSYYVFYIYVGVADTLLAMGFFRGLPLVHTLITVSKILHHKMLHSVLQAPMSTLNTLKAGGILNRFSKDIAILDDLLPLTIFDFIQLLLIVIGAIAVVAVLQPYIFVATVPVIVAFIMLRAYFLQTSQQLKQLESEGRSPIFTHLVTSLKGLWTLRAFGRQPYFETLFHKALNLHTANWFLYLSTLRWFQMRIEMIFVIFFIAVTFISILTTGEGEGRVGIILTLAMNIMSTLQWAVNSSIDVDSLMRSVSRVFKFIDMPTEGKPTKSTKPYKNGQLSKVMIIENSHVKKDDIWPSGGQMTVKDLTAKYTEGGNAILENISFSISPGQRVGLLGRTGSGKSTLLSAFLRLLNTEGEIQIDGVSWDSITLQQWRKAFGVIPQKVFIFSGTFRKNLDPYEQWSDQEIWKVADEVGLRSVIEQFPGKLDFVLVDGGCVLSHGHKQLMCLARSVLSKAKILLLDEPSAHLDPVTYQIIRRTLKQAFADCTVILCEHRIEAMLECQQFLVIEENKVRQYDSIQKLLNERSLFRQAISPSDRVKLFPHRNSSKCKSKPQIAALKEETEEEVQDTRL
Assay: Cell Surface Expression-Horse Radish Peroxidase (CSE-HRP) Assay
Type: cell-based
Conditions: test compound without co-corrector; read-out: EC50 (without co-corrector)
pEC50: −log10 of the molar value.
Here, each record is paired with measured pEC50 data.

Worked cases, pEC50 given:
CCn1nc(C)c(C(=O)N2[C@H](C(=O)O)[C@@H](C(C)(C)C)[C@H](NCc3cc(C(C)(C)C)ccc3OC)[C@@H]2c2ccccc2)c1C [II-362] :: 5.00 to 6.00
COc1ccc(C(C)C)cc1CN[C@H]1[C@H](C(C)(C)C)[C@@H](C(=O)O)N(C(=O)C2CCCCC2)[C@H]1c1ccccc1F [Example I-111] :: 5.00 to 6.00
CC(C)(C)[C@@H]1[C@@H](NCc2cc(Br)ccc2C#N)[C@@H](c2ccccc2)N(C(=O)C2CCCCC2)[C@H]1C(=O)O (racemic) [III-109] :: < 5.00

Exercise: Write down pEC50 measured for item COc1nc(C(C)(C)C)ccc1CN[C@H]1[C@H](C(C)(C)C)[C@@H](C(=O)O)N(C(=O)C2CCCCC2)[C@H]1c1ccccc1OC(F)F [II-528]
Solution: 5.00 to 6.00

Exercise: Write down pEC50 measured for item COc1ncc(C(F)(F)F)cc1CN[C@H]1[C@H](C(C)(C)C)[C@@H](C(=O)O)N(C(=O)C2CCC(F)(F)C2)[C@H]1c1ccccc1C(C)C (some centres unmarked) [II-589]
Solution: > 6.00

Exercise: Write down pEC50 measured for item CC(C)(C)[C@@H]1[C@@H](NCc2cc(C(F)(F)F)cnc2N)[C@@H](c2ccccc2)N(C(=O)C2CCCCC2)[C@H]1C(=O)O (racemic) [III-74]
Solution: < 5.00

Exercise: Write down pEC50 measured for item CC(C)(C)[C@H]1[C@H](NCc2cc3ccccc3nc2O)[C@H](c2ccccc2)N(C(=O)C2CCCCC2)[C@@H]1C(=O)O [III-180]
Solution: < 5.00

Exercise: Write down pEC50 measured for item CCn1ccc(=O)c(C(=O)N2[C@H](C(=O)O)[C@@H](C(C)(C)C)[C@H](NCc3cc(C(C)(C)C)ccc3OC)[C@@H]2c2ccccc2)c1 [Example I-101]
Solution: < 5.00

Exercise: Write down pEC50 measured for item COc1ccc(C(C)(C)C)cc1CN[C@H]1[C@H](C(C)(C)C)[C@@H](C(=O)O)N(C(=O)c2cnn(C(C)(C)C)c2C#N)[C@H]1c1ccccc1 [II-355]
Solution: 5.00 to 6.00

Exercise: Write down pEC50 measured for item CC(C)OC(=O)N1[C@H](C(=O)O)[C@@H](C(C)(C)C)[C@H](NCC2CCN(C(C)C)CC2)[C@@H]1c1ccccc1 [III-235]
Solution: < 5.00

Exercise: Write down pEC50 measured for item COc1ccc(C(F)(F)F)cc1CN[C@@H]1[C@@H](C(C)(C)C)[C@H](C(=O)O)N(C(=O)C2CCCCC2)[C@@H]1c1cccnc1N(C)C (racemic) [III-41]
Solution: 5.00 to 6.00

Exercise: Write down pEC50 measured for item COc1ccc(C23CC(C2)C3)cc1CN[C@H]1[C@H](C(C)(C)C)[C@@H](C(=O)O)N(C(=O)C2CCCCC2)[C@H]1c1cccnc1OC(F)F [Example I-228]
Solution: 5.00 to 6.00

###

Here, each record is paired with measured Emax data.
Target: F508delCFTR (Homo sapiens, UniProt P13569, DEL508-508)
Construct: expressed in transfected cells; host or cells: CFBE41o- human lung-derived epithelial cells (CFBE4lo-F508delCFTR-HRP), doxycycline-inducible
Assay: Cell Surface Expression-Horse Radish Peroxidase (CSE-HRP) Assay;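 as to Maximum % activity (without co-corrector): percent of the 2 µM on-plate positive control corrector response above DMSO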
Assay type: cell-based
Details: CSE-HRP; without co-corrector; maximum at any tested concentration, normalized to on-plate positive control; read-out: Maximum % activity (without co-corrector)

Worked cases, Emax given:
COc1ccc(C(C)(C)C)cc1CN[C@H]1[C@H](C(C)(C)C)[C@@H](C(=O)O)N(C(=O)[C@H](C)OC)[C@H]1c1ccccc1 [II-308] :: 100 to 200%
COc1ccc(C2CCCCC2)cc1CN[C@H]1[C@H](C(C)(C)OC)[C@@H](C(=O)O)N(C(=O)C2CCCCC2)[C@H]1c1ccccc1 [II-257] :: > 200%
COc1ccc(Cl)cc1CN[C@H]1[C@H](C(C)(C)C)[C@@H](C(=O)O)N(C(=O)C2CCCO2)[C@H]1c1ccccc1 (mixture of isomers) [II-61] :: 100 to 200%
COc1ccc(C(C)(C)C)cc1CN[C@H]1[C@H](C(C)(C)C)[C@@H](C(=O)O)N(C(=O)c2cc(-c3ccccc3)n(C)n2)[C@H]1c1ccccc1 [II-227] :: > 200%
COc1ccc(C(C)(C)C)cc1CN[C@H]1[C@H](C(C)(C)C)[C@@H](C(=O)O)N(C(=O)Cc2cccs2)[C@H]1c1ccccc1 [II-182] :: > 200%

# ---- query compound ----
Exercise: Write down Emax measured for item COc1ncc(C2CCC2)cc1CN[C@H]1[C@H](C(C)(C)C)[C@@H](C(=O)O)N(C(=O)[C@@H]2CCCCO2)[C@H]1c1ccccc1Br [Example I-291]
Solution: 100 to 200%

###

Biological target: F508delCFTR (Homo sapiens, UniProt P13569, DEL508-508)
Construct: expressed in transfected cells; host or cells: CFBE41o- human lung-derived epithelial cells (CFBE4lo-F508delCFTR-HRP), doxycycline-inducible
Assay: Cell Surface Expression-Horse Radish Peroxidase (CSE-HRP) Assay;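 as to Maximum % activity (with co-corrector): co-corrector and positive control are both the same reference corrector at 2 µM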
Format: cell-based
Details: CSE-HRP; with co-corrector (2 μM); maximum at any tested concentration, normalized to on-plate positive control
PROPERTY_LABEL: Maximum % activity (with co-corrector)

COc1ccc(Cl)cc1CN[C@@H]1[C@@H](C(C)(C)C)[C@H](C(=O)O)N(C(=O)OC(C)C)[C@@H]1c1cccnc1N(C)C (racemic) :: +++ (≥350)
COc1ccc(C(C)(C)C)cc1CN[C@H]1[C@H](C(C)(C)C)[C@@H](C(=O)O)N(C(=O)[C@H](C)c2ccccc2)[C@H]1c1ccccc1 :: +++ (≥350)
COc1ccc(C(C)(C)C)cc1CN[C@H]1[C@H](C(C)(C)C)[C@@H](C(=O)O)N(C(=O)Cc2ccccc2)[C@H]1c1ccccc1 :: +++ (≥350)

###

Biological target: F508delCFTR (Homo sapiens, UniProt P13569, DEL508-508)
Construct: expressed in transfected cells; host or cells: CFBE41o- human lung-derived epithelial cells (CFBE4lo-F508delCFTR-HRP), doxycycline-inducible
Assay: Cell Surface Expression-Horse Radish Peroxidase (CSE-HRP) Assay;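 as to Maximum % activity (without co-corrector): percent of the 2 µM on-plate positive control corrector response above DMSO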
Format: cell-based
Conditions: test compound without co-corrector; maximum at any tested concentration, normalized to on-plate positive control; read-out: Maximum % activity (without co-corrector)
Procedure: Cell Surface Expression-Horse Radish Peroxidase (CSE-HRP) Assay The development was achieved by expressing the F508delCFTR mutation along with a horseradish peroxidase (HRP) in the fourth exofacial loop, and then measuring the HRP activity using luminescence readout from these cells, CFBE4lo-F508delCFTR-HRP, that were incubated overnight with the test corrector compounds, either without or with the co-corrector. […] The raw counts from the experiment were analyzed using Accelrys® Assay Explorer v3.3. […]
Here, each record is paired with measured Emax data.

Worked cases, Emax given:
COc1cnc(C2CC3CCC2C3)cc1CN[C@H]1[C@H](C(C)(C)C)[C@@H](C(=O)O)N(C(=O)C2CCCCC2)[C@H]1c1ccccc1 (stereo partly drawn) [II-403] :: 100 to 200%
COc1ncc(C(F)(F)F)cc1CN[C@H]1[C@H](C(C)(C)C)[C@@H](C(=O)O)N(C(=O)[C@@H]2OCC[C@@H]2Cn2cccn2)[C@H]1c1ccccc1 [III-200] :: < 100%
COc1ccc(C(C)(C)C)cc1CN[C@H]1[C@H](C(C)(C)OC)[C@@H](C(=O)O)N(C(=O)OC(C)C)[C@H]1c1ccccc1 [II-419] :: > 200%
COc1ccc(-c2cnn(C)c2)cc1CN[C@H]1[C@H](C(C)(C)C)[C@@H](C(=O)O)N(C(=O)C2CCCCC2)[C@H]1c1ccccc1 [III-186] :: < 100%
COc1ccc(C(C)(C)C)cc1CN[C@H]1[C@H](C(C)(C)C)[C@@H](C(=O)O)N(C(=O)[C@H](C)Oc2ccccc2)[C@H]1c1ccccc1 [II-319] :: > 200%
COc1ccc(C(C)(C)C)cc1CN[C@H]1[C@H](C(C)(C)C)[C@@H](C(=O)O)N(C(=O)[C@H]2CCCCO2)[C@H]1c1ccccc1 [II-451] :: > 200%
COc1ccc(C(C)(C)C)cc1CN[C@H]1[C@H](C(C)(C)C)[C@@H](C(=O)O)N(C(=O)[C@@H]2C[C@H]2c2ccccc2)[C@H]1c1ccccc1 (relative stereo) [II-339] :: > 200%
COCCn1cc(C(F)(F)F)cc(CN[C@H]2[C@H](C(C)(C)C)[C@@H](C(=O)O)N(C(=O)C3CCCCC3)[C@H]2c2ccccc2)c1=O (racemic) [III-65] :: < 100%

Exercise: Write down Emax measured for item COc1ccc(C(C)(C)C)cc1CN[C@H]1[C@H](C(C)(C)C)[C@@H](C(=O)O)N(C(=O)C(Oc2ccccc2C)C(C)C)[C@H]1c1ccccc1 (stereo partly drawn) [II-415]
Solution: > 200%

Exercise: Write down Emax measured for item COc1nc2ccccc2cc1CN[C@H]1[C@H](C(C)(C)C)[C@@H](C(=O)O)N(C(=O)C2CCOCC2)[C@H]1c1cccnc1N(C)C [II-600]
Solution: < 100%

Exercise: Write down Emax measured for item COc1ncc(C2CCC2)cc1CN[C@H]1[C@H](C(C)(C)C)[C@@H](C(=O)O)N(C(=O)C2C3CCCC32)[C@H]1c1cccnc1N(C)C (stereo partly drawn) [II-518]
Solution: 100 to 200%

Exercise: Write down Emax measured for item COc1ncc(C(F)(F)F)cc1CN[C@H]1[C@H](C(C)(C)C)[C@@H](C(=O)O)N(C(=O)C2CCC(F)(F)C2)[C@H]1c1ccccc1C(C)C (stereo partly drawn) [II-589]
Solution: 100 to 200%
